# Tested on: MV-4-11
# protocol.text: Oncology cell growth assay MV-4-11 (CellTiter Glo, 72 hours)
# Type: cell-based
# cond: Homo sapiens, MV4-11, 72 h; MV-4-11 cell growth inhibitory activity, 3d
Field: IC50. Provide a value for each of the molecules that follow.

Notebook: Cc1noc(C)c1-c1cnc2c(C#CCO)cn(S(=O)(=O)c3ccccc3)c2c1 , IC50 read as ≤ 1 µM

According to the records, this molecule Cc1noc(C)c1-c1cnc2c(c1)c(Sc1ccccc1)cn2-c1cnn(C)c1 displays IC50 of ≤ 1 µM

Sure, the documented IC50 for CCCCC(O)(c1cn(C)c2ncc(-c3c(C)noc3C)cc12)C1CCC(F)(F)CC1 (stereo not drawn) is ≤ 1 µM

Lab book: IC50 of COC(c1ccccc1Cl)c1c[nH]c2ncc(-c3c(C)noc3C)cc12 (stereo not drawn) noted as ≤ 1 µM

For record Cc1cc(-c2cn(S(=O)(=O)c3ccccc3)c3cc(-c4c(C)noc4C)cnc23)[nH]n1 the listed IC50 is ≤ 1 µM

Data point: Cc1noc(C)c1-c1cnc2ccn(S(=O)(=O)C3CCCCC3)c2c1 ; IC50 = ≤ 1 µM

For this molecule ( Cc1noc(C)c1-c1cnc2c(-c3cnn(C)c3)cn(S(=O)(=O)c3ccccc3)c2c1 ), measured IC50 is ≤ 1 µM

Summary for this molecule, Cc1noc(C)c1-c1cnc2c(-c3cnn(C)c3)cn(Cc3cscn3)c2c1 : IC50 is ≤ 1 µM

In plain terms, Cc1noc(C)c1-c1cnc2c(-c3cnn(C(F)F)c3)cn(S(=O)(=O)C3CCCC3)c2c1 has a documented IC50 of ≤ 1 µM

The molecule identified as C=CCn1cc(-c2cn(S(=O)(=O)CCC)c3cc(-c4c(C)noc4C)cnc23)cn1 registered its IC50 at ≤ 1 µM

CCCS(=O)(=O)n1cc(-c2cnn(CCOC)c2)c2ncc(-c3c(C)noc3C)cc21 has a reported IC50 of ≤ 1 µM

For this molecule ( Cc1noc(C)c1-c1cnc2c(c1)c(Sc1ccccc1)cn2C1COC1 ), measured IC50 is 1 to 10 µM

The value of IC50 measured for the molecule Cc1ccc(S(=O)(=O)n2ccc3ncc(-c4c(C)noc4C)cc32)s1 turned out to be 1 to 10 µM

So, Cc1noc(C)c1-c1cnc2c(C#CCO)cn(S(=O)(=O)C3CCCC3)c2c1 ? Its IC50 was ≤ 1 µM

# IC50 (molecule: CCNC(=O)N1CCC(Cc2cn(C)c3ncc(-c4c(C)noc4C)cc23)CC1 ) is ≤ 1 µM

Just so you know, measured IC50 for CCc1cc2cc(-c3c(C)noc3C)cnc2[nH]1 came out at 1 to 10 µM

According to the records, this molecule Cc1noc(C)c1-c1cnc2[nH]cc(CC3CCC(F)(F)CC3)c2c1 displays IC50 of ≤ 1 µM

The value of IC50 measured for the molecule Cc1noc(C)c1-c1cnc2[nH]cc(C(O)c3cccc(OC(F)(F)F)c3)c2c1 (stereo not drawn) turned out to be 1 to 10 µM

----------
So I've got a bunch of compounds here, and I need their IC50 values.
# System: MV-4-11
# protocol.text: Oncology cell growth assay MV-4-11 (CellTiter Glo, 72 hours)
# Assay type: cell-based
# cond: Homo sapiens, MV4-11, 72 h; MV-4-11 cell growth inhibitory activity, 3d
# Procedure: Published bromodomain inhibitors JQ1 and iBET 151 have shown activity in variety of cancer cells such leukemia and lymphoma, multiple myeloma cells, NUT midline carcinoma and glioblastoma cells (Dawson M A et al. 2011; Delmore J E 2011; Chen Z et al. 2013; Filippakopoulos P et al. 2010; Mertz J A et al. 2011; Ott C J et al. 2012). […] Plates are shaken for approximately 10 minutes and chemiluminescent signal is read on Tecan microplate reader. […]

Record Cc1noc(C)c1-c1cnc2[nH]cc(C3(O)CCC(F)(F)CC3)c2c1 ; system MV-4-11; IC50 = 1 to 10 µM

Measured on MV-4-11, Cc1nc(Cn2cc(-c3cnn(C)c3)c3ncc(-c4c(C)noc4C)cc32)cs1 has a documented IC50 of ≤ 1 µM

Simply: Cc1noc(C)c1-c1cnc2c(c1)c(Sc1ccccc1)cn2C1CCOCC1 , MV-4-11, IC50 = ≤ 1 µM

So the reported IC50 for Cc1noc(C)c1-c1cnc2c(-c3cnn(C)c3)cn(C(C)c3ccccc3)c2c1 (stereo not shown) , on MV-4-11, turned out to be ≤ 1 µM

I looked up Cc1noc(C)c1-c1cnc2[nH]cc(C=C3CCS(=O)(=O)CC3)c2c1 and its IC50 for MV-4-11 was 1 to 10 µM

// returns IC50 for Cc1noc(C)c1-c1cnc2c(-c3cnn(C)c3)cn(CC3CC(F)(F)C3)c2c1 with MV-4-11; value = ≤ 1 µM

Observed IC50, MV-4-11, Cc1noc(C)c1-c1cnc2c(-c3cnc(C4CC4)nc3)cn(S(=O)(=O)C3CCCC3)c2c1 : 1 to 10 µM

# IC50 measured on MV-4-11 for item CCCCC(c1cn(C)c2ncc(-c3c(C)noc3C)cc12)C1CCC(F)(F)CC1 (stereo not shown) = 1 to 10 µM

Measured on MV-4-11, Cc1noc(C)c1-c1cnc2[nH]cc(Cc3c(F)cccc3Cl)c2c1 has a documented IC50 of 1 to 10 µM

For COC(c1c[nH]c2ncc(-c3c(C)noc3C)cc12)C1CCS(=O)(=O)CC1 (stereo not shown) on MV-4-11, measured IC50 was 1 to 10 µM

// assay MV-4-11, entry Cc1noc(C)c1-c1cnc2c(-c3cnn(C)c3)cn(C(=O)C3CCC(F)(F)CC3)c2c1 , IC50 value = 1 to 10 µM

Bench note, MV-4-11: Cc1noc(C)c1-c1cnc2c(-c3cnn(C)c3)cn(S(=O)(=O)c3ccccc3F)c2c1 , IC50 reads ≤ 1 µM

Tested on MV-4-11: Cc1nc(-c2cn(S(=O)(=O)c3ccccc3)c3cc(-c4c(C)noc4C)cnc23)cs1 . Observed IC50: ≤ 1 µM

----------
Task for the reader: assign each of the following molecules its reported IC50.
# Tested on: MV-4-11
# protocol.text: Oncology cell growth assay MV-4-11 (CellTiter Glo, 72 hours)
# Format: cell-based
# cond: Homo sapiens, MV4-11, 72 h; MV-4-11 cell growth inhibitory activity, 3d

Recorded result, Cc1noc(C)c1-c1cnc2[nH]cc(C(c3ccc(F)cc3)C3CC3)c2c1 (centres unmarked) [P-0064] , IC50: ≤ 1 µM

# IC50 (molecule: Cc1noc(C)c1-c1cnc2[nH]cc(P(=O)(c3ccccc3)c3ccccc3)c2c1 [P-0166] ) is ≤ 1 µM

Per the record, Cc1noc(C)c1-c1cnc2ccn(S(=O)(=O)c3ccccc3F)c2c1 [P-0060] has IC50 of 1 to 10 µM

Entry Cc1noc(C)c1-c1cnc2[nH]c(C)c(C(O)c3cccnc3)c2c1 (centres unmarked) [P-0009] , IC50 reported as ≤ 1 µM

Short answer for Cc1noc(C)c1-c1cnc2ccn(Cc3ccccc3)c2c1 [P-0162] : IC50 was ≤ 1 µM

Value of IC50 reported for the molecule Cc1noc(C)c1-c1cnc2c(-c3cnn(C4CC4)c3)cn(C(C)c3ccccc3)c2c1 (centres unmarked) [P-0216] is ≤ 1 µM

Data point: Cc1noc(C)c1-c1cnc2c(-c3cn[nH]c3)cn(S(=O)(=O)C3CCCC3)c2c1 [P-0167] ; IC50 = ≤ 1 µM

IC50 recorded for this molecule, Cc1noc(C)c1-c1cnc2[nH]cc(C(=O)C3CCC(F)(F)CC3)c2c1 [P-0031] , is 1 to 10 µM

# molecule Cc1noc(C)c1-c1cnc2c(-c3cnn(C)c3)cn(Cc3c(F)cccc3F)c2c1 [P-0173] ; its IC50 = ≤ 1 µM

The recorded IC50 for Cc1noc(C)c1-c1cnc2c(-c3cnn(C)c3)cn(S(=O)(=O)C3CCCC3)c2c1 [P-0112] is ≤ 1 µM

Consider [2H]C([2H])([2H])n1cc(C(OC)C2CCC(F)(F)CC2)c2cc(-c3c(C)noc3C)cnc21 (centres unmarked) [P-0080] . Its measured IC50 is ≤ 1 µM

Form field IC50, entry CCc1[nH]c2ncc(-c3c(C)noc3C)cc2c1C(O)c1ccccc1Cl (centres unmarked) [P-0042] : ≤ 1 µM

For reference, reported IC50 for Cc1noc(C)c1-c1cnc2c(-c3cnn(C(F)F)c3)cn(S(=O)(=O)c3ccccc3)c2c1 [P-0131] stands at ≤ 1 µM

The molecule Cc1noc(C)c1-c1cnc2c(-c3cnn(C4CCOC4)c3)cn(S(=O)(=O)C3CCCC3)c2c1 (centres unmarked) [P-0153] showed IC50 equal to ≤ 1 µM

Lab note: measured IC50 of Cc1noc(C)c1-c1cnc2ccn(S(=O)(=O)c3ccc(F)cc3)c2c1 [P-0052] was 1 to 10 µM

Documented IC50 of Cc1noc(C)c1-c1cnc2[nH]cc(Cc3cccc4c3OC(F)(F)O4)c2c1 [P-0048] : 1 to 10 µM

Just so you know, measured IC50 for Cc1noc(C)c1-c1cnc2c(-c3cnn(C(F)F)c3)cn(CC3CCC(F)(F)CC3)c2c1 [P-0210] came out at ≤ 1 µM

Looking up C=CCn1cc(-c2cn(C(C)c3ccccc3)c3cc(-c4c(C)noc4C)cnc23)cn1 (centres unmarked) [P-0201] , I found its IC50 recorded as ≤ 1 µM

Form field IC50, entry Cc1csc(S(=O)(=O)n2ccc3ncc(-c4c(C)noc4C)cc32)c1 [P-0059] : 1 to 10 µM

Per the record, Cc1noc(C)c1-c1cnc2ccn(C(C)c3ccccc3)c2c1 (centres unmarked) [P-0159] has IC50 of ≤ 1 µM

The value of IC50 measured for the molecule Cc1noc(C)c1-c1cnc2[nH]cc(Cc3cccc(OC(F)(F)F)c3)c2c1 [P-0046] turned out to be 1 to 10 µM

Reported IC50 of Cc1noc(C)c1-c1cnc2c(-c3cnn(C)c3)cn(CC3(F)CCCCC3)c2c1 [P-0212] : ≤ 1 µM

Form field IC50, entry Cc1noc(C)c1-c1cnc2c(-c3cnn(C4CCOC4)c3)cn(C(C)c3ccccc3)c2c1 (centres unmarked) [P-0204] : ≤ 1 µM

meta.source: patent US10501460B2
